Hello, the source for this data is patent US20240392013A1, in case you need it.

Quick reference for hIL1RAP kdis(1/s) among some molecules
targetSystem: T1, hIL1RAP (Homo sapiens, UniProt Q9NPH3)
T1 sequence (Q9NPH3 21-367 limits assumed): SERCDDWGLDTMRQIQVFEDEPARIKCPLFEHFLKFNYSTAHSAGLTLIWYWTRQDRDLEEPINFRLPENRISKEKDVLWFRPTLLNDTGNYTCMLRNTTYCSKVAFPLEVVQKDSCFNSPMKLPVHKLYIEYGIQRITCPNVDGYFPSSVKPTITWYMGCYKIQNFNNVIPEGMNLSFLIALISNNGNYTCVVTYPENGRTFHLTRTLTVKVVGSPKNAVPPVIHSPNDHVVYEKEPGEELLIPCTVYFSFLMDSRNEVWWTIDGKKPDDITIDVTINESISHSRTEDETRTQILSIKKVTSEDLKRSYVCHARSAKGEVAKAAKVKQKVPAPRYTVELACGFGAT
testSummary: Kinetics of IL1RAP mAbs by Octet, human IL1RAP
Type: binding
Design: extracellular domain His-tagged, Cat #10121-H08H; His; purchased Sino Biological lot MB08MA1301 (catalogue number not given)
Give the quantity in s⁻¹, number only.

>  <molecule>
74804_25H09A: anti-IL1RAP mAb; VH SEQ ID NO:9, VL SEQ ID NO:25, κ light chain (antibody, V domains shown, 74804_25H09A VH; 74804_25H09A VL) VH: QVQLVQSGAEVKKPGSSVKVSCKASGDTFSNYAITWVRQAPGQGLEWIVGFSPIFGTANYAQKFQGRVTITADKSTSTAYMELSSLISEDTAVYYCAWGSGNFNWFDPWGQGTLVTVSS VL: AIRMTQSPSSFSASTGDRVTITCRASQGISSYLAWYQQKPGKAPKLLIYAASTLQSGVPSRFSGSGSGTDFTLTISSLQSEDFATYYCQQYYSYPLTFGGGTKVEIK

>  <hIL1RAP kdis(1/s) / s⁻¹>
0.000337

$$$$
>  <molecule>
74804_18L05A: anti-IL1RAP mAb; VH SEQ ID NO:4, VL SEQ ID NO:21, κ light chain (antibody, V domains shown, 74804_18L05A VH; 74804_18L05A VL) VH: QVQLVQSGAEVKKPGASVKVSCKTSGYTFTSCCMHWVRQAPGQGLEWMGIINPSVGSTSYAQKFQGIVTMTRDTSTSTVYMELSSLRSEDTAVYYCAVDSSGSRYYYGMDVWGQGTTVTVSS VL: EIVMTQSPATLSVSPGERATLSCRASQSVRSNLAWYQQRPGQAPRLLIYGTSTRATGIPARFSGSGSGTEFTLTISSLQSEDFAVYYCQQYNYWPYTFGQGTKLEIK

>  <hIL1RAP kdis(1/s) / s⁻¹>
0.00037

$$$$

Entry 74804_43F04A: anti-IL1RAP mAb; VH SEQ ID NO:7, VL SEQ ID NO:22, κ light chain (antibody, V domains shown, 74804_43F04A VH; 74804_07K10A VL, 74804_29D13A VL and 74804_43F04A VL) VH: QVQLLQSGAEVKKPGSSVKVSCKASGGTFSIYAIDWVRQAPGQGLEWMGGIIPIFGTENSAQNFQGRITITADKSTNTAYMELSSLRSEDTAVYYCARNGATSDAFDIWGQGTMVTVFS VL: EIVLTQSPGTLSLSPGERATLSCRASLSVSSNYLAWFQQRPGQAPRLLIYGVSRRATGIPDRFSGSGSGTDFTLTISRLEPEDFAVYYCQQYGSSPLTFGGGTKVEIK needs its hIL1RAP kdis(1/s) filled in; supply it.
0.000149
